measurement.protocol: small molecules captured by biotinylated probe aFSTL3 – biochemical, small-molecule microarray, fluorescence 635/667, stem cell growth factor project, primary screen (AID 1064);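 also: measures binding of the biotinylated anti-FSTL3 antibody to printed compounds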
run.conditions: higher = more signal
experimental.endpoint: composite z-score
Give bare numbers.

>  <compound>
COc1cc2c(cc1O)C=[N+](Cc1cc3c(cc1Br)OCO3)CC2

>  <composite z-score>
0.305

$$$$
>  <compound>
O=c1cccc(-c2ccccc2Cl)o1

>  <composite z-score>
-0.152

$$$$
>  <compound>
COC(=O)[C@@]1(Cc2ccc(F)cc2)[C@H]2c3cc(C(=O)N(C)C)n(Cc4ccc(C)o4)c3C[C@H]2CN1C(=O)c1ccccc1

>  <composite z-score>
2.58

$$$$

Give composite z-score for all compounds that follow.
1. COCCOC(=O)N1C(=O)[C@@]2(c3ccccc31)[C@H](C(=O)N1CCc3cc(OC)c(OC)cc3C1)[C@H]1C(=O)O[C@H](c3ccccc3)[C@H](c3ccccc3)N1[C@@H]2c1ccc(O)cc1
2. C=CCNC(=O)[C@H]1[C@@H]2C(=O)O[C@@H](c3ccccc3)[C@@H](c3ccccc3)N2[C@@H](c2ccc(O)cc2)[C@]12C(=O)Nc1ccc(C#CCCO)cc12

Result string:
1: -0.159; 2: -0.107

Give composite z-score for all compounds that follow.
1. CC(CO)N1C(=O)[C@@H]2C3C(=O)OCCC/C=C\[C@H]3OC23C=CCN(CCN2CCOCC2)C(=O)[C@@H]13 (stereo partly specified)
2. OB1C=CCC(CCc2ccccc2)O1 (stereo unspecified)
3. CCOc1ccc(N2C(=O)CSC2c2cccc([N+](=O)[O-])c2)cc1 (stereo unspecified)

Result string:
1. -0.547
2. 0.0393
3. -0.368

Give composite z-score for all compounds that follow.
1. O=C1OCC=C[C@H]2OC34C=CCN(Cn5nnc6ccccc65)C(=O)[C@H]3N(CCCCCO)C(=O)[C@@H]4[C@@H]12 (stereo partly specified)
2. C=CCC(OC(C)=O)[C@@H]1[C@@H](N(Cc2ccc(-c3cccc(C(F)(F)F)c3)o2)C(=O)c2cccc3ccccc23)c2cc(OCCCO)ccc2N1C(=O)Cc1ccc2ccccc2c1 (stereo partly specified)
3. Cc1ccc(S(=O)(=O)N2C[C@@H](C(=O)O)[C@H](Sc3ccccc3)C[C@H]2c2ccccc2)cc1
4. COc1ccc(C(O)C2C=CC3C(=O)N(C)C(=O)C3N2N(c2ccccc2)c2ccccc2)c2ccccc12 (stereo unspecified)
5. CCCC(=O)N(CCc1c[nH]c2ccccc12)[C@@H]1CC(C(=O)NCCO)=C[C@H](Oc2c(I)cc(CO)cc2OC)[C@H]1O
6. CC(C)(C)OC(=O)CC[C@@]1(C(=O)N2CCCCC2)N=C(c2ccc(OCCCO)cc2)O[C@@H]1c1ccccc1
7. CCOC(=O)C1=C[C@@H](C(C)C)N(S(=O)(=O)c2ccc(C)cc2)[C@H]1c1ccccc1F
8. [N-]=[N+]=NCc1ccccc1[C@@H]1OC(c2ccc(OCCCO)cc2)=N[C@]1(CCS(=O)(=O)c1ccccc1)C(=O)N1CCCCC1

Result string:
0.4
-0.0817
0.265
0.249
-0.279
0.249
-0.487
0.0217

###

measurement.protocol: budding yeast growth modifiers under rapamycin – strain BY4716, OD600, 96 h, primary screen (AID 1091); also: test concentration not given here
run.conditions: S. cerevisiae BY4716 + rapamycin, higher = more signal, called active from +8 up or from −8 down
experimental.endpoint: z-score
Numbers only.

Some compounds with known z-score results, for comparison:
>  <compound>
COC(=O)c1c(CC[C@@H](CO)NC(=O)N[C@@H](Cc2ccccc2)Cn2cc(-c3ccccn3)nn2)oc(C(=O)N2CCOCC2)c1C(=O)OC

>  <z-score>
-0.593

$$$$
>  <compound>
CC(C)NC(=O)[C@@]1(Cc2ccccc2I)c2ccccc2C(=O)N(Cc2ccccc2Cl)[C@H]1c1ccc(CO)cc1

>  <z-score>
1.39

$$$$
>  <compound>
C=CCC(OC(C)=O)[C@@H]1[C@@H](N(Cc2ccc(-c3cccc(C(F)(F)F)c3)o2)C(=O)c2cccc3ccccc23)c2cc(OCCCO)ccc2N1C(=O)Cc1ccc2ccccc2c1 (some centres not stated)

>  <z-score>
0.133

$$$$

Give z-score for all compounds that follow.
1. C[N+](C)(C)CCCCCCNC(=O)[C@H]1C[C@H]2C(=O)N[C@@H](Cc3ccccc3)C(=O)N2[C@H]1c1cccc(OCCO)c1
2. COC(=O)[C@@]1(Cc2ccc(OC)cc2)[C@H]2c3cc(C(=O)N4CCCC4)n(CCSCCO)c3C[C@H]2CN1C(=O)c1ccccc1

Result string:
[-0.282, 1.25]

Give z-score for all compounds that follow.
1. C=C(CCCC)C(=O)CC[C@H](OC(=O)c1cccnc1)c1ccc(OCCO)cc1
2. CC(C)NC(=O)[C@@H]1c2ccccc2C(=O)N(C(C)C)[C@H]1c1ccc(CO)cc1

Result string:
[0.364, 0.386]

###

study.target: Left-right determination factor 2 (Homo sapiens) (UniProt O00292)
Sequence (O00292 whole entry, looked up): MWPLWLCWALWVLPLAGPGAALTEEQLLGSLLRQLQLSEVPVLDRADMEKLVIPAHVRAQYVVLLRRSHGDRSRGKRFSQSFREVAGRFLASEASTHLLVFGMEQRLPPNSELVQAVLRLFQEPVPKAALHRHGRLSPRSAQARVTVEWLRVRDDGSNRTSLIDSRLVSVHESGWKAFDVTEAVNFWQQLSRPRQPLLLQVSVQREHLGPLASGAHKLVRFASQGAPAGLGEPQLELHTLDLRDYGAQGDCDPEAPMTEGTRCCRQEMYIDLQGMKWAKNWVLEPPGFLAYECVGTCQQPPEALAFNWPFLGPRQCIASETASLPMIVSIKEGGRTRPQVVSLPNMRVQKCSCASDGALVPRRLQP
measurement.protocol: small molecules binding LEFTY2 protein – biochemical, small-molecule microarray, 635 nm fluorescence scan, primary screen (AID 1110)
run.conditions: higher = more signal
Condition met means recorded composite z-score is 0.3 or above; Condition not met means it is below 0.3.

>  <compound>
CCCCCCc1nc(-c2ccc(-c3ccc(Cl)c(Cl)c3)o2)c(C)c2c1[Si](C(C)C)(C(C)C)OC2

>  <label.value>
Condition not met

$$$$
>  <compound>
COc1ccccc1CN1C(=O)c2ccccc2[C@@H](C(=O)NCc2ccccc2)[C@@H]1c1ccc(CO)cc1

>  <label.value>
Condition not met

$$$$
>  <compound>
C=C(CCCC)/C(=C/C[C@@H](OC(C)=O)c1ccccc1OCCO)c1cc(C(=O)OC)ccc1OC

>  <label.value>
Condition not met

$$$$
>  <compound>
COCC(=C=CC[C@H](O)c1cccc(OCCO)c1)C[C@H](O)c1cc(Cl)cc(Cl)c1O

>  <label.value>
Condition met

$$$$
>  <compound>
O=C1C2C=CC(C(O)C=Cc3ccc([N+](=O)[O-])cc3)N(n3cnnc3)C2C(=O)N1Cc1ccccc1 (stereo not given)

>  <label.value>
Condition not met

$$$$

Here is another compound to look at.
Query string: Answer whether composite z-score of CCCNC(=O)[C@@]1(Sc2ccc(C)cc2)CC(=O)N(Cc2ccccc2C(F)(F)F)[C@@H]1c1ccc(CO)cc1I is greater than or equal to 0.3.
Result string: Condition not met

###

Test system: Fibrinogen (Alexa647-labelled)
measurement.protocol: Alexa647-fibrinogen binding to printed small molecules – biochemical, small-molecule microarray, 635/667 nm fluorescence, artefact control for SMM control-protein annotation, profiling panel (AID 1131);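 also: z-score merges 667 nm fluorescence with per-spot signal-to-noise over triplicate slides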
run.conditions: fibrinogen-A647 binding fluorescence, higher = more signal
Record form. Attribute: composite z-score. Fill in for each entry.
Numbers only.

Give composite z-score for all compounds that follow.
1. CCOc1ccc(N2C(=O)CSC2c2cccc([N+](=O)[O-])c2)cc1 (centres undefined)
2. COC(=O)[C@@]1(Cc2ccccc2)[C@H]2c3cc(C(=O)N(C)C)n(Cc4ccc(OC)c(OC)c4)c3C[C@H]2CN1C(=O)c1ccccc1
3. C=CCC(OC(C)=O)[C@@H]1[C@@H](N(Cc2ccc(-c3cccc(C(F)(F)F)c3)o2)C(=O)Cc2ccc(OC)cc2)c2cc(OCCCO)ccc2N1C(=O)c1ccc2ccccc2c1 (some centres undefined)
4. O=C(CS)NCCCCCNC(=O)[C@@H]1C[C@@H]2C(=O)NCC(=O)N2[C@@H]1c1cccc(OCCO)c1

Result string:
[0.71, 1.01, -1, 0.0984]

###

study.target: Pro-neuregulin-1, membrane-bound isoform (Homo sapiens) (UniProt Q02297)
Sequence (Q02297 whole entry, looked up, canonical isoform): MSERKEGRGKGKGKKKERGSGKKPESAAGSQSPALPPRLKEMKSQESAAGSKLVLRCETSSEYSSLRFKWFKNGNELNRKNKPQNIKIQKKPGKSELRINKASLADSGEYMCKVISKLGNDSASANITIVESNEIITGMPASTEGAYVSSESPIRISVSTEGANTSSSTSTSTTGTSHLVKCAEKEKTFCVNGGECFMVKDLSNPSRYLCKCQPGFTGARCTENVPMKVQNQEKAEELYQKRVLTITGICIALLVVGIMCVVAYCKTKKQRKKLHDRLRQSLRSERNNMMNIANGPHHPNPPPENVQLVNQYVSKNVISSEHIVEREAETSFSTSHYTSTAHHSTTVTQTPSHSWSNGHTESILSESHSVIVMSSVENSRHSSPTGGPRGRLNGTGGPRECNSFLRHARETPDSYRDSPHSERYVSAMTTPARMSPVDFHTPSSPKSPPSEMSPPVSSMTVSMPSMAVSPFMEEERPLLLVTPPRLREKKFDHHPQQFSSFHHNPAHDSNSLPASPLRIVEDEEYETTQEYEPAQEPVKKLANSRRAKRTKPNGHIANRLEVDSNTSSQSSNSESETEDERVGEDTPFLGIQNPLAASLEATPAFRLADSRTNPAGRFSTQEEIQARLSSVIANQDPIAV
measurement.protocol: small molecules binding neuregulin-1 protein – biochemical, small-molecule microarray, fluorescence 635/667, psychiatric disease protein project, primary screen (AID 1075);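 also: score combines 667 nm spot fluorescence with signal to noise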
run.conditions: NRG1 binding, 635 nm fluorescence, higher = more signal
experimental.endpoint: composite z-score
Answers are plain numbers.

Some compounds with known composite z-score results, for comparison:
>  <compound>
CC(C)CNC(=O)[C@@]1(Cc2ccccc2I)c2ccccc2C(=O)N(Cc2ccccc2C(F)(F)F)[C@H]1c1ccc(CO)cc1

>  <composite z-score>
0.89

$$$$
>  <compound>
COC(=O)C(CC#Cc1ccc2c(c1)[C@]1(C(=O)N2)[C@H](c2ccccc2OCCO)N2[C@H](c3ccccc3)[C@H](c3ccccc3)OC(=O)[C@H]2[C@@H]1C(N)=O)C(=O)OC

>  <composite z-score>
1.69

$$$$
>  <compound>
NCCCCCNC(=O)[C@H]1C[C@H]2C(=O)N[C@@H](Cc3ccccc3)C(=O)N2[C@H]1c1cccc(OCCO)c1

>  <composite z-score>
2.05

$$$$
>  <compound>
C=C(CCCC)/C(=C/C[C@H](OC(C)=O)c1ccccc1OCCO)c1cnc2ccccc2c1

>  <composite z-score>
0.324

$$$$
>  <compound>
CCOC(=O)C[C@H]1[C@H](OC(=O)c2ccc(-c3ccccc3)cc2)[C@@H](NC(=O)c2ccccc2)c2cc(OCCCO)ccc2N1C(=O)Cc1ccc(OC)cc1

>  <composite z-score>
-0.31

$$$$

Give composite z-score for all compounds that follow.
1. Cc1ccc(S[C@]2(C(=O)O)CC(=O)N(C(C)C)[C@@H]2c2ccc(CO)cc2)cc1
2. CC1CC/C=C\[C@H]2OC34C=CCN(Cc5ccccc5)C(=O)[C@H]3N(C(C)CO)C(=O)[C@@H]4C2C(=O)O1 (some centres undefined)
3. CCCC=C(CCC)[C@@H](NS(=O)(=O)c1ccc(Cl)cc1)c1ccc(C(=O)OC)cc1
4. C=CCC(OC(C)=O)[C@@H]1[C@@H](N(Cc2ccc(-c3cccc(C(F)(F)F)c3)o2)C(=O)c2cccc3ccccc23)c2cc(OCCCO)ccc2N1C(=O)Cc1ccc2ccccc2c1 (some centres undefined)

Result string:
1. -0.226
2. -0.771
3. -0.194
4. 0.376

Give composite z-score for all compounds that follow.
1. C=C(CCCC)/C(=C/C[C@H](OC(=O)c1ccncc1)c1ccc(OCCO)cc1)c1cc(C(=O)OC)ccc1OC
2. C=CCNC(=O)[C@@H]1[C@H]2C(=O)O[C@H](c3ccccc3)[C@H](c3ccccc3)N2[C@H](c2ccc(OCCO)cc2)[C@@]12C(=O)N(C(=O)OCCOC)c1ccc(C#CCC(C(=O)OC)C(=O)OC)cc12
3. C=CC[C@]1(C(N)=O)COC(c2ccc(OCCCO)cc2)=N1
4. CC(C)CCC[C@@H](C)[C@H]1CC[C@@]2(C)C3=C(CC[C@]12C)[C@@]1(C)CC[C@H](OC(=O)c2ccc(C(F)(F)F)nc2)C(C)(C)C1CC3 (some centres undefined)
5. CC(C)(C)OC(=O)CC[C@@]1(C(=O)N2CCCCC2)N=C(c2ccc(OCCCO)cc2)O[C@@H]1c1ccccc1

Result string:
0.348
1.48
0.0632
-0.323
1.72
